Cited source: patent US4316898A

- System: Klebsiella pneumoniae 272
- Assay info: Serial dilution test in the microtiter system, MIC against Klebsiella pneumoniae 272
- Format: cell-based
- Assay setup: minimum inhibitory concentration, 37° C., 18 to 20 hours, read-out: MIC, Klebs. pneum. 272
Listing of entries alongside the reported MIC.
Experimental endpoint: MIC

>>> test_result("CC(=O)Nc1nnc(SCC2=C(C(=O)O)N3C(=O)[C@@H](NC(=O)[C@H](NC(=O)Nc4cnc(NC5CCC(O)CC5)nc4O)c4ccc(O)cc4)[C@H]3SC2)s1 (stereo partly drawn)")
"2 µg/mL"
>>> test_result("Cn1nnnc1SCC1=C(C(=O)O)N2C(=O)[C@@H](NC(=O)[C@H](NC(=O)Nc3cnc(C4CC4)nc3O)c3ccc(O)cc3)[C@H]2SC1")
"1 µg/mL"
>>> test_result("Cn1nnnc1SCC1=C(C(=O)O)N2C(=O)[C@@H](NC(=O)[C@H](NC(=O)Nc3cnc(NC4CCC(O)CC4)nc3O)c3ccc(O)cc3)[C@H]2SC1 (stereo partly drawn)")
"0.5 µg/mL"
>>> test_result("Cc1nnc(SCC2=C(C(=O)O)N3C(=O)[C@@H](NC(=O)[C@H](NC(=O)Nc4cnc(NC5CCC(O)CC5)nc4O)c4ccc(O)cc4)[C@H]3SC2)s1 (stereo partly drawn)")
"2 µg/mL"
>>> test_result("Cn1nnnc1SCC1=C(C(=O)O)N2C(=O)[C@@H](NC(=O)C(NC(=O)Nc3cnc(NC4CCC(O)CC4)nc3O)c3cccs3)[C@H]2SC1 (stereo partly drawn)")
"2 µg/mL"
>>> test_result("CNc1nnc(SCC2=C(C(=O)O)N3C(=O)[C@@H](NC(=O)[C@H](NC(=O)Nc4cnc(Nc5ccc(S(=O)(=O)NC)cc5)nc4O)c4ccc(O)cc4)[C@H]3SC2)s1")
"0.25 µg/mL"
>>> test_result("CNS(=O)(=O)c1ccc(Nc2ncc(NC(=O)N[C@@H](C(=O)N[C@@H]3C(=O)N4C(C(=O)O)=C(COC(C)=O)CS[C@H]34)c3ccc(O)cc3)c(O)n2)cc1")
"0.5 µg/mL"
>>> test_result("CO/N=C(\\C(=O)N[C@@H]1C(=O)N2C(C(=O)O)=C(COC(N)=O)CS[C@H]12)c1ccco1 [Cefuroxim, reference compound]")
"4 µg/mL"
>>> test_result("Cn1nnnc1SCC1=C(C(=O)O)N2C(=O)[C@@H](NC(=O)C(NC(=O)Nc3cnc(Nc4ccc(S(N)(=O)=O)cc4)nc3O)c3cccs3)[C@H]2SC1 (stereo partly drawn)")
"0.25 µg/mL"
>>> test_result("Cn1nnnc1SCC1=C(C(=O)O)N2C(=O)[C@@H](NC(=O)[C@H](NC(=O)Nc3cnc(Nc4ccc(S(N)(=O)=O)cc4)nc3O)c3ccc(O)cc3)[C@H]2SC1")
"0.06 µg/mL"
>>> test_result("CCCNc1ncc(NC(=O)N[C@@H](C(=O)N[C@@H]2C(=O)N3C(C(=O)O)=C(CSc4nnnn4C)CS[C@H]23)c2ccc(O)cc2)c(O)n1")
"0.5 µg/mL"
>>> test_result("CNS(=O)(=O)c1ccc(Nc2ncc(NC(=O)N[C@@H](C(=O)N[C@@H]3C(=O)N4C(C(=O)O)=C(CSc5nnnn5C)CS[C@H]34)c3ccc(O)cc3)c(O)n2)cc1")
"0.13 µg/mL"

* * *

Quick record of MIC values for Proteus rettgeri.
Experimental endpoint: MIC (µg/mL)

>>> test_result("Cn1nnnc1SCC1=C(C(=O)O)N2C(=O)[C@@H](NC(=O)C(NC(=O)Nc3cnc(NC4CCC(O)CC4)nc3O)c3cccs3)[C@H]2SC1 (stereo partly drawn) [F]")
2
>>> test_result("Cn1nnnc1SCC1=C(C(=O)O)N2C(=O)[C@@H](NC(=O)[C@H](NC(=O)Nc3cnc(C4CC4)nc3O)c3ccc(O)cc3)[C@H]2SC1 [A]")
2
>>> test_result("Cn1nnnc1SCC1=C(C(=O)O)N2C(=O)[C@@H](NC(=O)C(NC(=O)Nc3cnc(Nc4ccc(S(N)(=O)=O)cc4)nc3O)c3cccs3)[C@H]2SC1 (stereo partly drawn) [M]")
0.5
>>> test_result("Cc1nnc(SCC2=C(C(=O)O)N3C(=O)[C@@H](NC(=O)[C@H](NC(=O)Nc4cnc(NC5CCC(O)CC5)nc4O)c4ccc(O)cc4)[C@H]3SC2)s1 (stereo partly drawn) [G]")
1
>>> test_result("CNc1nnc(SCC2=C(C(=O)O)N3C(=O)[C@@H](NC(=O)[C@H](NC(=O)Nc4cnc(Nc5ccc(S(=O)(=O)NC)cc5)nc4O)c4ccc(O)cc4)[C@H]3SC2)s1 [J]")
1
>>> test_result("Cn1nnnc1SCC1=C(C(=O)O)N2C(=O)[C@@H](NC(=O)[C@H](NC(=O)Nc3cnc(Nc4ccc(S(N)(=O)=O)cc4)nc3O)c3ccc(O)cc3)[C@H]2SC1 [L]")
0.13

* * *

- System: Pseudomonas aeruginosa Hamburgensis
- Assay info: Serial dilution test in the microtiter system, MIC against Pseudomonas aeruginosa Hamburgensis
- Assay type: cell-based
- Assay setup: minimum inhibitory concentration, 37° C., 18 to 20 hours, read-out: MIC, Pseud. aerug. Hbg.
Experimental endpoint: MIC

>>> test_result("CO/N=C(\\C(=O)N[C@@H]1C(=O)N2C(C(=O)O)=C(COC(N)=O)CS[C@H]12)c1ccco1 [Cefuroxim, reference compound]")
"> 100 µg/mL"
>>> test_result("CNS(=O)(=O)c1ccc(Nc2ncc(NC(=O)N[C@@H](C(=O)N[C@@H]3C(=O)N4C(C(=O)O)=C(CSc5nnnn5C)CS[C@H]34)c3ccc(O)cc3)c(O)n2)cc1 [K]")
"4 µg/mL"
>>> test_result("Cn1nnnc1SCC1=C(C(=O)O)N2C(=O)[C@@H](NC(=O)[C@H](NC(=O)Nc3cnc(Nc4ccc(S(N)(=O)=O)cc4)nc3O)c3ccc(O)cc3)[C@H]2SC1 [L]")
"2 µg/mL"

* * *

Listing of entries alongside the reported MIC.
- Test system: Proteus rettgeri
Experimental endpoint: MIC (µg/mL)

>>> test_result("CNS(=O)(=O)c1ccc(Nc2ncc(NC(=O)N[C@@H](C(=O)N[C@@H]3C(=O)N4C(C(=O)O)=C(COC(C)=O)CS[C@H]34)c3ccc(O)cc3)c(O)n2)cc1 [H]")
0.5
>>> test_result("CCCNc1ncc(NC(=O)N[C@@H](C(=O)N[C@@H]2C(=O)N3C(C(=O)O)=C(CSc4nnnn4C)CS[C@H]23)c2ccc(O)cc2)c(O)n1 [B]")
1

* * *

- System: Pseudomonas aeruginosa Hamburgensis
- Assay info: Serial dilution test in the microtiter system, MIC against Pseudomonas aeruginosa Hamburgensis
- Assay type: cell-based
- Assay setup: minimum inhibitory concentration, 37° C., 18 to 20 hours, read-out: MIC, Pseud. aerug. Hbg.
Listing of entries alongside the reported MIC.
Experimental endpoint: MIC (µg/mL)

>>> test_result("Cn1nnnc1SCC1=C(C(=O)O)N2C(=O)[C@@H](NC(=O)C(NC(=O)Nc3cnc(Nc4ccc(S(N)(=O)=O)cc4)nc3O)c3cccs3)[C@H]2SC1 (stereo partly drawn)")
4
>>> test_result("Cn1nnnc1SCC1=C(C(=O)O)N2C(=O)[C@@H](NC(=O)[C@H](NC(=O)Nc3cnc(NCCCO)nc3O)c3ccc(O)cc3)[C@H]2SC1")
4
>>> test_result("Cc1nnc(SCC2=C(C(=O)O)N3C(=O)[C@@H](NC(=O)[C@H](NC(=O)Nc4cnc(NC5CCC(O)CC5)nc4O)c4ccc(O)cc4)[C@H]3SC2)s1 (stereo partly drawn)")
16
>>> test_result("Cn1nnnc1SCC1=C(C(=O)O)N2C(=O)[C@@H](NC(=O)C(NC(=O)Nc3cnc(NC4CCC(O)CC4)nc3O)c3cccs3)[C@H]2SC1 (stereo partly drawn)")
16
>>> test_result("CNc1nnc(SCC2=C(C(=O)O)N3C(=O)[C@@H](NC(=O)[C@H](NC(=O)Nc4cnc(Nc5ccc(S(=O)(=O)NC)cc5)nc4O)c4ccc(O)cc4)[C@H]3SC2)s1")
8
>>> test_result("CNS(=O)(=O)c1ccc(Nc2ncc(NC(=O)N[C@@H](C(=O)N[C@@H]3C(=O)N4C(C(=O)O)=C(COC(C)=O)CS[C@H]34)c3ccc(O)cc3)c(O)n2)cc1")
4

* * *

Listing of entries alongside the reported ED50.
- Test system: E. coli ATCC 11775
- Assay info: In vivo test in mice against experimental E. coli infection
- Parameters: species or system Female NMRI mice
- Assay setup: Escherichia coli, ATCC11775, sc, 168 h; subcutaneous; per dose; dose at which 50% of the animals survived; observation 7 days
Experimental endpoint: ED50 (mg/kg)

>>> test_result("CCCNc1ncc(NC(=O)N[C@@H](C(=O)N[C@@H]2C(=O)N3C(C(=O)O)=C(CSc4nnnn4C)CS[C@H]23)c2ccc(O)cc2)c(O)n1")
1.1
>>> test_result("Cn1nnnc1SCC1=C(C(=O)O)N2C(=O)[C@@H](NC(=O)[C@H](NC(=O)Nc3cnc(NCCCO)nc3O)c3ccc(O)cc3)[C@H]2SC1")
0.8
>>> test_result("CNS(=O)(=O)c1ccc(Nc2ncc(NC(=O)N[C@@H](C(=O)N[C@@H]3C(=O)N4C(C(=O)O)=C(CSc5nnnn5C)CS[C@H]34)c3ccc(O)cc3)c(O)n2)cc1")
0.3
>>> test_result("Cn1nnnc1SCC1=C(C(=O)O)N2C(=O)[C@@H](NC(=O)[C@H](NC(=O)Nc3cnc(Nc4ccc(S(N)(=O)=O)cc4)nc3O)c3ccc(O)cc3)[C@H]2SC1")
0.15
>>> test_result("Cn1nnnc1SCC1=C(C(=O)O)N2C(=O)[C@@H](NC(=O)[C@H](NC(=O)Nc3cnc(C4CC4)nc3O)c3ccc(O)cc3)[C@H]2SC1")
1.6
>>> test_result("Cn1nnnc1SCC1=C(C(=O)O)N2C(=O)[C@@H](NC(=O)[C@H](NC(=O)Nc3cnc(NC4CCC(O)CC4)nc3O)c3ccc(O)cc3)[C@H]2SC1 (stereo partly shown)")
0.4
>>> test_result("CO/N=C(\\C(=O)N[C@@H]1C(=O)N2C(C(=O)O)=C(COC(N)=O)CS[C@H]12)c1ccco1 [Cefuroxim, reference compound]")
37
